meta.source: ChEMBL document CHEMBL1157406

Biological target: NUAK family SNF1-like kinase 1 (Homo sapiens)
Sequence (O60285 whole entry): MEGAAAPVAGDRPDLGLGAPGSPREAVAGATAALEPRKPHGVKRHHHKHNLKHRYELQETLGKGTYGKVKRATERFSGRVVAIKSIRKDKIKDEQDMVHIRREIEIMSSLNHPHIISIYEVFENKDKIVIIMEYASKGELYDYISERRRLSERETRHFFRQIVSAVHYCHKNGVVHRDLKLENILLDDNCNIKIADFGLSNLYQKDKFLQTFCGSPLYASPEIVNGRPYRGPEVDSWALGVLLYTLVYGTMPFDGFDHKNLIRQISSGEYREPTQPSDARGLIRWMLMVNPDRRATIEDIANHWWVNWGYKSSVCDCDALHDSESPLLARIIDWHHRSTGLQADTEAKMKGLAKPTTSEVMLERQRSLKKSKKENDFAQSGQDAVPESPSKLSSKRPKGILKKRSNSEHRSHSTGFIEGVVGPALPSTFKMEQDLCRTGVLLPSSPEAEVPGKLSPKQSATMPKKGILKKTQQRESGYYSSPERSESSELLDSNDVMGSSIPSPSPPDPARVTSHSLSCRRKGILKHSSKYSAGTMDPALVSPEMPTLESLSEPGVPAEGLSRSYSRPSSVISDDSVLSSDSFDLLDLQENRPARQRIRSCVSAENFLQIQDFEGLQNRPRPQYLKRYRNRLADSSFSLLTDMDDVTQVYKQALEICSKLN
Experiment: Inhibition of recombinant ARK5
Reported Endpoint: IC50

Look over these answered cases.
{"Compound": "Cc1cc(O)cc2oc(=O)c3c(O)cc(O)cc3c12 [ALTERNARIOL]", "Value Reported": "9.5 ×10⁻⁷ g/ml"}
{"Compound": "COc1cc(O)c2c(c1)-c1cc(O)c(O)cc1COC2=O [ALTERLACTONE]", "Value Reported": "> 1 ×10⁻⁵ g/ml"}
{"Compound": "COc1cc(O)c2c(=O)oc3c(O)c(O)cc(C)c3c2c1", "Value Reported": "3.5 ×10⁻⁷ g/ml"}
{"Compound": "Cc1cc(O)cc2oc(=O)c3c(O)cc(OS(=O)(=O)O)cc3c12", "Value Reported": "7.5 ×10⁻⁷ g/ml"}

Measured IC50 of COc1cc(O)c2c(c1)C1(OC2=O)C(C)=CC(=O)C1O (stereo not given) [TALAROFLAVONE] : > 1 ×10⁻⁵ g/ml
